System: P. falciparum strain 3D7
method: Inhibitor susceptibility dose-response assay (SYBR-Green I), P. falciparum 3D7
Assay type: cell-based, Plasmodium falciparum
conditionInfo: Plasmodium falciparum, 3D7; 72h, ring-stage; n=3 experiments (or 2 where indicated with *); read-out: IC50 (S.D.), P. falciparum-3D7
Please note: IC50 exactly at 5 µM is NO. Only values below 5 µM get YES.

Past entries and their recorded results:
COc1ccc2c(c1)CCC1C2CCC2(C)C(NCCCCCCN3C(=O)C=CC3=O)CCC12 (centres unmarked): YES
Nc1nc(N)c2nc(-c3cccc(O)c3)c(-c3cccc(O)c3)nc2n1: NO
CC(=O)Nc1cccc(-n2c(=O)n(C3CC3)c(=O)c3c(Nc4ccc(I)cc4F)n(C)c(=O)c(C)c32)c1: YES
O=C(O)c1ccc2c(c1)nc(Nc1cccc(Cl)c1)c1ccncc12: NO
CN(C)C[C@@H]1CCn2cc(c3ccccc32)C2=C(C(=O)NC2=O)c2cn(c3ccccc23)CCO1: YES

Query block: Decide: IC50 of Cc1ccc(NC(=O)c2ccc(CN3CC[C@H](N(C)C)C3)c(C(F)(F)F)c2)cc1Nc1nccc(-c2cncnc2)n1 strictly below 5 µM?
Result block: YES

----------
Test system: uninfected RBCs
method: Cellular phosphatidylserine exposure assay (annexin V flow cytometry)
conditionInfo: 72h, 5x P. falciparum 3D7-IC50, % of RBCs, mean of 2 experiments
valueType: Phosphatidylserine exposure (%) 72h
Give the quantity in %, number only.

Reference set (7 entries):
COc1ccc2c(c1)CCC1C2CCC2(C)C(NCCCCCCN3C(=O)C=CC3=O)CCC12 (centres unmarked) [U-73122]: 11
CC(=O)Nc1cccc(-n2c(=O)n(C3CC3)c(=O)c3c(Nc4ccc(I)cc4F)n(C)c(=O)c(C)c32)c1 [Trametinib]: 5
CN(C)C[C@@H]1CCn2cc(c3ccccc32)C2=C(C(=O)NC2=O)c2cn(c3ccccc23)CCO1 [Ruboxistaurin]: 6
COc1ccc(S(=O)(=O)N(CCO)c2ccccc2CN(C)C/C=C/c2ccc(Cl)cc2)cc1 [KN-93 Phosphate]: 4
Cc1ccc(NC(=O)c2ccc(CN3CC[C@H](N(C)C)C3)c(C(F)(F)F)c2)cc1Nc1nccc(-c2cncnc2)n1 [Bafetinib]: 4
CN(C)CCOc1ccc(-c2nc(-c3ccncc3)c(-c3ccc4c(c3)CC/C4=N\O)[nH]2)cc1 [SB590885]: 4
CCCC[C@@H](C=O)NC(=O)[C@H](CC(C)C)NC(=O)OCc1ccccc1 [Calpeptin]: 5

Below: the item to evaluate.
Query block: What Phosphatidylserine exposure (%) 72h value was documented for this molecule, Cn1nccc1Nc1nccc(-c2cc3c(s2)C(C)(C)N(CCN2CCOCC2)C3=O)n1 [LY3214996] ?
Result block: 5

----------
Test system: uninfected RBCs
method: Cellular phosphatidylserine exposure assay (annexin V flow cytometry)
conditionInfo: 72h, 5x P. falciparum 3D7-IC50, % of RBCs, mean of 2 experiments
valueType: Phosphatidylserine exposure (%) 72h
# value in %; strip the unit string

Take a look at these entries with their results.
Oc1ccc2ccccc2c1SSc1c(O)ccc2ccccc12 [IPA-3]: 35
Nc1nc(N)c2nc(-c3cccc(O)c3)c(-c3cccc(O)c3)nc2n1 [TG-100-115]: 5

Query block: # lookup: Phosphatidylserine exposure (%) 72h of CN1CCN(c2nc(C3=C(c4c[nH]c5ccccc45)C(=O)NC3=O)c3ccccc3n2)CC1 [Sotrastaurin]
Result block: 4

Query block: Can you look up the measured Phosphatidylserine exposure (%) 72h of Clc1ccc(C(c2ccc(Cl)cc2)n2cc[n+](CC(OCc3ccc(Cl)cc3Cl)c3ccc(Cl)cc3Cl)c2)cc1 (stereo not drawn) [Calmidazolium] for me?
Result block: 9

Query block: Given the molecule Clc1cccc(Cl)c1CSc1nnc(-c2cnccn2)s1 [Yoda1] , what is its reported Phosphatidylserine exposure (%) 72h?
Result block: 100.

Query block: For the molecule CCCCCCCCc1ccc(CCC(N)(CO)CO)cc1 [FTY720] , what Phosphatidylserine exposure (%) 72h is on record?
Result block: 34

----------
Test system: uninfected RBCs
method: Cellular phosphatidylserine exposure assay (annexin V flow cytometry)
Structures can show the parent of a compound that is named as a salt.
Record t whenever Phosphatidylserine exposure (%) 72h is at 5% or higher; record f when lower.

Answered cases to consult:
CNC(=O)c1cc(Oc2ccc(NC(=O)Nc3ccc(Cl)c(C(F)(F)F)c3)cc2)ccn1: t
COc1ccc2c(c1)c(C1=C(c3c[nH]c4ccccc34)C(=O)NC1=O)cn2CCCN(C)C: f
Cc1ccc(NC(=O)c2ccc(CN3CCN(C)CC3)cc2)cc1Nc1nccc(-c2cccnc2)n1 [Imatinib mesylate]: f
[Cl][Au]([Cl])[Cl].c1cnc2c(c1)ccc1cccnc12: t
O=C(O)c1ccc2c(c1)nc(Nc1cccc(Cl)c1)c1ccncc12: f

Could you now consider this next compound?
Query block: API: above_or_equal(metric=Phosphatidylserine exposure (%) 72h, cutoff=5%) for item N#CC(=C(N)Sc1ccccc1N)C(C#N)=C(N)Sc1ccccc1N
Result block: t

----------
Test system: BdC9 line of B. divergens
method: Inhibitor susceptibility dose-response assay (SYBR-Green I), B. divergens
Type: cell-based, Babesia divergens
conditionInfo: 72h, asynchronous; n=3 experiments (or 2 where indicated with *); read-out: IC50 (S.D.), B. divergens
valueType: IC50 (nM)
Give the quantity in nM, number only.

Query block: Find the recorded IC50 belonging to [Cl][Au]([Cl])[Cl].c1cnc2c(c1)ccc1cccnc12 and report it.
Result block: 2800

----------
Below, each entry is listed alongside its reported Phosphatidylserine exposure (%) 24h.
Tested on: uninfected RBCs
method: Cellular phosphatidylserine exposure assay (annexin V flow cytometry);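 further: flow cytometry recording 10,000 events per condition, gated on single cells, with the two experiments using blood from separate donors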
Please answer using a numeric value trailed by its unit.

Previously resolved entries follow.
C[C@@H](Oc1cc(-c2cnn(C3CCNCC3)c2)cnc1N)c1c(Cl)ccc(F)c1Cl: 1%
[Cl][Au]([Cl])[Cl].c1cnc2c(c1)ccc1cccnc12: 3%
CNC(=O)c1cc(Oc2ccc(NC(=O)Nc3ccc(Cl)c(C(F)(F)F)c3)cc2)ccn1: 7%

Now for a further compound.
Query block: Could you share which Phosphatidylserine exposure (%) 24h value was measured for CC(C)CC(O)(CC(C)C)c1cnn(C(=O)N2CCCC2)n1 ?
Result block: 1%

----------
method: in vitro
conditionInfo: human
valueType: hemolysis at 72 h, 5 x P. falciparum 3D7-IC50 (%)
Supply the numeric figure in %, leaving out any unit text.

Reference set, count: 3
CC(C)CC(O)(CC(C)C)c1cnn(C(=O)N2CCCC2)n1 [AA74-1]: 2
C[C@@H](Oc1cc(-c2cnn(C3CCNCC3)c2)cnc1N)c1c(Cl)ccc(F)c1Cl [Crizotinib]: 14
O=C(O)c1ccc2c(c1)nc(Nc1cccc(Cl)c1)c1ccncc12 [CX-4945]: 16

Query block: Find the recorded hemolysis at 72 h, 5 x P. falciparum 3D7-IC50 belonging to CNC(=O)c1cc(Oc2ccc(NC(=O)Nc3ccc(Cl)c(C(F)(F)F)c3)cc2)ccn1 [Sorafenib] and report it.
Result block: 15

Query block: Find the recorded hemolysis at 72 h, 5 x P. falciparum 3D7-IC50 belonging to N#CC(=C(N)Sc1ccccc1N)C(C#N)=C(N)Sc1ccccc1N [U0126] and report it.
Result block: 20

----------
Tested on: P. falciparum strain Dd2
method: Inhibitor susceptibility dose-response assay (SYBR-Green I), P. falciparum Dd2
Type: cell-based, Plasmodium falciparum
conditionInfo: Plasmodium falciparum, DD2; 72h, ring-stage; n=3 experiments (or 2 where indicated with *); read-out: IC50 (S.D.), P. falciparum-Dd2
From the text: The P. falciparum strains 3D7 and Dd2 were obtained from the Walter and Eliza Hall Institute (Melbourne, Australia) and the Malaria Research and Reference Reagent Resource, respectively. […] B. divergens parasites were maintained and assayed in mixed stages without synchronization. […]
Recorded pIC50 for the following molecules
The read-out pIC50 is expressed as -log10 of concentration in moles per litre.

Answered examples (6):
CN(C)C[C@@H]1CCn2cc(c3ccccc32)C2=C(C(=O)NC2=O)c2cn(c3ccccc23)CCO1: 6.05
CNC(=O)c1cc(Oc2ccc(NC(=O)Nc3ccc(Cl)c(C(F)(F)F)c3)cc2)ccn1: 5.40
COc1ccc2c(c1)CCC1C2CCC2(C)C(NCCCCCCN3C(=O)C=CC3=O)CCC12 (centres unmarked): 5.30
Cc1ccc(NC(=O)c2ccc(CN3CC[C@H](N(C)C)C3)c(C(F)(F)F)c2)cc1Nc1nccc(-c2cncnc2)n1: 5.52
Nc1nc(N)c2nc(-c3cccc(O)c3)c(-c3cccc(O)c3)nc2n1: 5.15
CC(=O)Nc1cccc(-n2c(=O)n(C3CC3)c(=O)c3c(Nc4ccc(I)cc4F)n(C)c(=O)c(C)c32)c1: 6.96

Query block: What pIC50 value was documented for this molecule, O=C(O)c1ccc2c(c1)nc(Nc1cccc(Cl)c1)c1ccncc12 ?
Result block: 5.22

Query block: Bench note: what pIC50 did CN1CCN(c2nc(C3=C(c4c[nH]c5ccccc45)C(=O)NC3=O)c3ccccc3n2)CC1 show?
Result block: 5.52
